ASSAY_OVERVIEW: Absorption maximum of the dye
Assay type: physicochemical
Experimental: The following table sets forth the absorption maximum in nanometers for several dyes suitable for use in this invention. To the activated 3-ethyl-2-methylbenzothiazolium derivative obtained above (4.5 mg) was added the 7-chloro-1-methyllepidinium salt obtained above (3.8 mg) in chloroform (250 μL) to form a mixture. Then triethylamine (50 μL) was added to the mixture. The resulting mixture was stirred at reflux for 30 minutes, during which time a dark blue solution was obtained. […]
ENDPOINT_LABEL: Absorption maximum (nm)
# number then unit; no other words

Return Absorption maximum (nm) (reported value) for this compound: CN1C=C/C(=C\C=C\c2sc3ccccc3[n+]2C)c2ccc(Br)cc21 [Dye 5]
638 nm

Return Absorption maximum (nm) (reported value) for this compound: CN1C=C/C(=C\C=C\c2oc3ccc4ccccc4c3[n+]2C)c2ccc(Cl)cc21 [Dye 9]
624 nm

Return Absorption maximum (nm) (reported value) for this compound: CN1C=C/C(=C\C=C\c2sc3ccccc3[n+]2C)c2ccc(F)cc21 [Dye 2]
628 nm

Return Absorption maximum (nm) (reported value) for this compound: CC[n+]1c(/C=C/C=C2\C=CN(C)c3cc(Cl)ccc32)sc2ccccc21 [Dye 7]
638 nm

---

ASSAY_OVERVIEW: Absorption maximum of the dye
Format: physicochemical
ASSAY_CONDITIONS: in methanol solution
ENDPOINT_LABEL: absorption maximum in methanol (nm)
Give the quantity in nm, number only.

Check out these entries, answers already filled in.
CN1C=C/C(=C\C=C\c2sc3ccccc3[n+]2C)c2ccc(Cl)cc21    638
CN1C=C/C(=C\C=C\c2oc3ccc4ccccc4c3[n+]2C)c2ccc(Cl)cc21    624
CC[n+]1c(/C=C/C=C2\C=CN(C)c3cc(Cl)ccc32)sc2ccccc21    638

Turning now to a further record.
Return absorption maximum in methanol (reported value) for this compound: CN1C=C/C(=C\C=C\C2=[N+](C)c3ccc4ccccc4c3C2(C)C)c2ccc(Cl)cc21
623
